Each recorded value in this set is attributed to patent US11566007B2.

Target: NRAS WT (Homo sapiens (Human), UniProt P01111+P62937)
Sequence (P01111 whole entry, one chain of several): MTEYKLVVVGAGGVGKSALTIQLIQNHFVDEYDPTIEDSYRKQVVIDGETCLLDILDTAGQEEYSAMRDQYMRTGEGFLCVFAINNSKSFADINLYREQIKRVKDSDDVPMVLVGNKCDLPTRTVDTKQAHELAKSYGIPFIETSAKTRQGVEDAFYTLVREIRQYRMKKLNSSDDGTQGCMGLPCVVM
Assay: Ras-Raf (BRAF RBD) disruption / FRET / MOA assay, NRAS WT
Type: biochemical
Settings: read-out: IC50* NRAS WT FRET data

>  <COMPOUND>
C=CC(=O)N1CC[C@H](C(=O)N(C)[C@H](C(=O)N[C@H]2Cc3nc(cs3)-c3ccc4c(c3)c(c(-c3cc5c(nc3[C@H](C)OC)CCN(C)C5)n4CC)CC(C)(C)COC(=O)[C@@H]3CCCN(N3)C2=O)C(C)C)C1 (atropisomer, axis not shown)

>  <IC50>
1000 to 10000 nM

$$$$
>  <COMPOUND>
C=CC(=O)N1CC[C@H](C(=O)N(C)[C@H](C(=O)N[C@H]2Cc3cccc(c3)-c3ccc4c(c3)c(c(-c3cccnc3[C@H](C)OC)n4CC#CC)CC(C)(C)COC(=O)[C@@H]3CCCN(N3)C2=O)C(C)C)C1 (atropisomer, axis not shown)

>  <IC50>
1000 to 10000 nM

$$$$
>  <COMPOUND>
CCn1c(-c2cccnc2[C@H](C)OC)c2c3cc(ccc31)-c1csc(n1)C[C@H](NC(=O)[C@H](C(C)C)N(C)C(=O)N1CCN(C(=O)/C=C/CN(C)C)C[C@@H]1C)C(=O)N1CCC[C@H](N1)C(=O)OCC(C)(C)C2 (atropisomer, axis not shown)

>  <IC50>
10 to 100 nM

$$$$
>  <COMPOUND>
CCn1c(-c2cccnc2[C@H](C)OC)c2c3cc(ccc31)-c1csc(n1)C[C@H](NC(=O)CCO[C@@H]1CCN(C(=O)C#CC(C)(C)N3CCC3)C1)C(=O)N1CCC[C@H](N1)C(=O)OCC(C)(C)C2 (atropisomer, axis not shown)

>  <IC50>
1000 to 10000 nM

$$$$
>  <COMPOUND>
CCn1c(-c2cccnc2[C@H](C)OC)c2c3cc(ccc31)-c1cccc(c1)C[C@H](NC(=O)[C@H](C(C)C)N1CC[C@@]3(CCN(C(=O)C#C[C@H]4COCCN4C4COC4)C3)C1=O)C(=O)N1CCC[C@H](N1)C(=O)OCC(C)(C)C2 (atropisomer, axis not shown)

>  <IC50>
1000 to 10000 nM

$$$$
>  <COMPOUND>
C=CC(=O)N1CCOC2(C1)CN(C(=O)N(C)[C@H](C(=O)N[C@H]1Cc3nc(cs3)-c3ccc4c(c3)c(c(-c3cccnc3[C@H](C)OC)n4CC(F)(F)F)CC(C)(C)COC(=O)[C@@H]3CCCN(N3)C1=O)C(C)C)C2 (atropisomer, axis not shown)

>  <IC50>
100 to 1000 nM

$$$$
>  <COMPOUND>
C=CC(=O)N1CC(N2CCN(C(=O)N(C)[C@H](C(=O)N[C@H]3Cc4nc(cs4)-c4ccc5c(c4)c(c(-c4cccnc4[C@H](C)OC)n5CC)CC(C)(C)COC(=O)[C@@H]4CCCN(N4)C3=O)C(C)C)CC2)C1 (atropisomer, axis not shown)

>  <IC50>
100 to 1000 nM

$$$$

---

Target: KRAS G12S (Homo sapiens (Human), UniProt P01116+P62937, G12S)
Sequence (P01116-2 other isoform, or with tags, fused parts or gaps G12S, one chain of several): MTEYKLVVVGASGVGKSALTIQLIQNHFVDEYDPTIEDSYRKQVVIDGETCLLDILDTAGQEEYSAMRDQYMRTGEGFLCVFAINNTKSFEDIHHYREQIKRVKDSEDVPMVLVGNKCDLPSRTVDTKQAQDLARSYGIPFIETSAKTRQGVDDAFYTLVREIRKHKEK
Experiment: Ras-Raf (BRAF RBD) disruption / FRET / MOA assay, KRAS G12S
Format: biochemical
Details: Ras-Raf disruption/FRET/MOA assay; class symbols; read-out: KRAS G12S FRET data IC50
Known IC50 of a selection of molecules
QUANTITY MEASURED: IC50

>  <MOLECULE>
CCn1c(-c2cccnc2[C@H](C)OC)c2c3cc(ccc31)-c1cccc(c1)C[C@H](NC(=O)[C@H](C(C)C)N(C)C(=O)[C@H]1CCN(C(=O)C#CC(C)(C)N3CCCC3)C1)C(=O)N1CCC[C@H](N1)C(=O)OCC(C)(C)C2 (atropisomer, axis not shown)

>  <QUANTITY MEASURED>
IC50

>  <VALUE OBSERVED>
1000 to 10000 nM

$$$$
>  <MOLECULE>
CCn1c(-c2cccnc2[C@H](C)OC)c2c3cc(ccc31)-c1csc(n1)C[C@H](NC(=O)CCOC1CN(C(=O)C#CC(C)(C)N(C)C)C1)C(=O)N1CCC[C@H](N1)C(=O)OCC(C)(C)C2 (atropisomer, axis not shown)

>  <QUANTITY MEASURED>
IC50

>  <VALUE OBSERVED>
1000 to 10000 nM

$$$$
>  <MOLECULE>
C=CC(=O)N1CC[C@H](C(=O)N(C)[C@H](C(=O)N[C@H]2Cc3cccc(c3)-c3ccc4c(c3)c(c(-c3cc(CN(C)C)cnc3[C@H](C)OC)n4CC)CC(C)(C)COC(=O)[C@@H]3CCCN(N3)C2=O)C(C)C)C1 (atropisomer, axis not shown) [Example A522]

>  <QUANTITY MEASURED>
IC50

>  <VALUE OBSERVED>
1000 to 10000 nM

$$$$
>  <MOLECULE>
CCn1c(-c2cccnc2[C@H](C)OC)c2c3cc(ccc31)-c1cc(O)cc(c1)C[C@H](NC(=O)[C@H](C(C)C)N(C)C(=O)N1CCCN(C(=O)/C=C/CN(C)C)CC1)C(=O)N1CCC[C@H](N1)C(=O)OCC(C)(C)C2 (atropisomer, axis not shown)

>  <QUANTITY MEASURED>
IC50

>  <VALUE OBSERVED>
10 to 100 nM

$$$$
>  <MOLECULE>
CCn1c(-c2cccnc2[C@H](C)OC)c2c3cc(ccc31)-c1csc(n1)C[C@H](NC(=O)[C@H](C(C)C)N(C)C(=O)N1CCC3(CC1)CN(C(=O)/C=C/CF)C3)C(=O)N1CCC[C@H](N1)C(=O)OCC(C)(C)C2 (atropisomer, axis not shown)

>  <QUANTITY MEASURED>
IC50

>  <VALUE OBSERVED>
100 to 1000 nM

$$$$
>  <MOLECULE>
CCn1c(-c2cccnc2[C@H](C)OC)c2c3cc(ccc31)-c1cc(cc(C(F)F)c1)C[C@H](NC(=O)C(COC1CN(C(=O)C#CC(C)(C)N(C)C)C1)C(C)C)C(=O)N1CCC[C@H](N1)C(=O)OCC(C)(C)C2 (mixture of isomers)

>  <QUANTITY MEASURED>
IC50

>  <VALUE OBSERVED>
> 10000 nM

$$$$

---

Target: KRAS WT (Homo sapiens (Human), UniProt P01116+P62937)
Sequence (P01116-2 other isoform, or with tags, fused parts or gaps): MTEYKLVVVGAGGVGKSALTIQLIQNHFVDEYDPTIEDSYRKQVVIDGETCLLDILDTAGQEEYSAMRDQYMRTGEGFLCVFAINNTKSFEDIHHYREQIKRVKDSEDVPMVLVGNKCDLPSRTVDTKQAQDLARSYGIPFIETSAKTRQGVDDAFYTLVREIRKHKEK
Sequence (P62937 whole entry): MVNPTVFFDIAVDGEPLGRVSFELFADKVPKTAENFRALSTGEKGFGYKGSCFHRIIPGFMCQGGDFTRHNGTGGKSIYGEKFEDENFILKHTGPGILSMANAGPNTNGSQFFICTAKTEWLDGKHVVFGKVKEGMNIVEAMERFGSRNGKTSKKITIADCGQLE
Test: Ras-Raf (BRAF RBD) disruption / FRET / MOA assay, KRAS WT
Type: biochemical
Details: read-out: IC50* KRAS WT FRET data

>  <COMPOUND>
CCn1c(-c2cccnc2[C@H](C)OC)c2c3cc(ccc31)-c1cccc(c1)C[C@H](NC(=O)[C@@H](COC1CN(C(=O)C#CC(C)(C)N(C)C3CC3)C1)C(C)C)C(=O)N1CCC[C@H](N1)C(=O)OCC(C)(C)C2 (atropisomer, axis not shown)

>  <IC50>
> 10000 nM

$$$$
>  <COMPOUND>
C=CC(=O)N1CC[C@H](C(=O)N(C)[C@H](C(=O)N[C@H]2Cc3cc(O)cc(c3)-c3ccc4c(c3)c(c(-c3cc(N5CC(OC)C5)ccn3)n4CC)CC(C)(C)COC(=O)[C@@H]3CCCN(N3)C2=O)C(C)C)C1

>  <IC50>
1000 to 10000 nM

$$$$
>  <COMPOUND>
C=CC(=O)N1CC(N(C)C(=O)N(C)[C@H](C(=O)N[C@H]2Cc3nc(cs3)-c3ccc4c(c3)c(c(-c3cccnc3[C@H](C)OC)n4CC)CC(C)(C)COC(=O)[C@@H]3CCCN(N3)C2=O)C(C)C)C1 (atropisomer, axis not shown)

>  <IC50>
100 to 1000 nM

$$$$
>  <COMPOUND>
CC#CC(=O)N1CC[C@H](C(=O)N(C)[C@H](C(=O)N[C@H]2Cc3nc(cs3)-c3ccc4c(c3)c(c(-c3cccnc3[C@H](C)OC)n4C(C)=O)CC(C)(C)COC(=O)[C@@H]3CCCN(N3)C2=O)C(C)C)C1

>  <IC50>
> 10000 nM

$$$$
>  <COMPOUND>
C=CC(=O)N1CC[C@H](C(=O)N(C)[C@H](C(=O)N[C@H]2Cc3cc(F)cc(c3)-c3ccc4c(c3)c(c(-c3cccnc3[C@H](C)OC)n4CC)CC(C)(C)COC(=O)[C@@H]3CCCN(N3)C2=O)C(C)C)C1 (atropisomer, axis not shown)

>  <IC50>
1000 to 10000 nM

$$$$
>  <COMPOUND>
C=CC(=O)N1CC(C(=O)N(C)[C@H](C(=O)N[C@H]2Cc3cc(O)cc(c3)-c3ccc4c(c3)c(c(-c3cccnc3[C@H](C)OC)n4CC)CC(C)(C)COC(=O)[C@@H]3CCCN(N3)C2=O)C(C)C)C1 (atropisomer, axis not shown)

>  <IC50>
10 to 100 nM

$$$$
